Some molecules, each annotated with its measured pIC50.
# test target: IDH1 R132H (Homo sapiens (Human), UniProt O75874, R132H)
# Sequence (O75874 whole entry R132H): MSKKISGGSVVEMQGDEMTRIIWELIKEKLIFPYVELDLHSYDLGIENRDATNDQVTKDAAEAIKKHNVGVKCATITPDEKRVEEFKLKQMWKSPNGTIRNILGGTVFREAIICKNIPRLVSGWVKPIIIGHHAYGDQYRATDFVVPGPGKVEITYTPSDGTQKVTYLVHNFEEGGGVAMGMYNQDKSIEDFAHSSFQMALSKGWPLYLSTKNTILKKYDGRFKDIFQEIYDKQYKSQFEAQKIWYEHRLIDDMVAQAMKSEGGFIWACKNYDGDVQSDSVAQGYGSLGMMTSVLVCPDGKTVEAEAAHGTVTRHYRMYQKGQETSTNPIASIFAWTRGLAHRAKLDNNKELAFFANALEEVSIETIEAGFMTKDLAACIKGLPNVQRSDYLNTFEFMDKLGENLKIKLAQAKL
# protocol summary: Assays for IDH1 R132H Inhibitors (NADPH/aKG, resazurin detection)
# Assay type: biochemical
# condition parameters: IDH1 R132H enzyme, Table 2; read-out: IDHR132H Activity
pIC50: −log10 of the molar value.

>  <molecule>
C[C@@H]1CN(c2nc(C3CCCCC3)c3c(c2C#N)CCOC3)CCN1C(=O)NC1CC1

>  <result>
5.00 to 6.00

$$$$

QUERY: Lab note: need pIC50 for CC(C)c1nc(N2CCN(S(=O)(=O)c3cccs3)CC2)c(C#N)c2c1COCC2 on IDH1 R132H (Homo sapiens (Human), UniProt O75874, R132H), anyone have it?
RESULT: 5.00 to 6.00

QUERY: Lab note: need pIC50 for CON(C)CC(=O)N1CCN(c2nc(C3CC3)c3c(c2C#N)CC(C)(C)OC3)C[C@H]1C(C)C on IDH1 R132H (Homo sapiens (Human), UniProt O75874, R132H), anyone have it?
RESULT: 5.00 to 6.00

QUERY: Lab note: need pIC50 for COC(=O)CN1CCN(c2nc(C3CC3)c3c(c2C#N)CC(C)(C)OC3)C[C@H]1C(C)C on IDH1 R132H (Homo sapiens (Human), UniProt O75874, R132H), anyone have it?
RESULT: 5.00 to 6.00

QUERY: Lab note: need pIC50 for C[C@@H]1CN(c2nc(C3CCCCC3)c3c(c2C#N)CCOC3)CCN1C(=O)c1cnn2cccnc12 on IDH1 R132H (Homo sapiens (Human), UniProt O75874, R132H), anyone have it?
RESULT: 5.00 to 6.00

QUERY: Lab note: need pIC50 for CC(C)c1nc(N2CCN(C(=O)Cc3ccccc3F)[C@H](C(C)C)C2)c(C#N)c2c1COC(C)(C)C2 on IDH1 R132H (Homo sapiens (Human), UniProt O75874, R132H), anyone have it?
RESULT: 5.00 to 6.00

----------
# Tested on: U87R132H (U87MG) cells
# protocol summary: Cellular assay for IDH1m inhibitors: inhibition of 2-HG production in U87MG (U87R132H) cells (LC-MS)
# Format: cell-based
# condition parameters: 48 hours
pIC50: −log10 of the molar value.
experimental endpoint: pIC50

QUERY: If you can, please state the reported pIC50 value of COC(=O)[C@@H]1C[C@H]1C(=O)N1CCN(c2nc(C3CC3)c3c(c2C#N)CC(C)(C)OC3)C[C@H]1C(C)C .
RESULT: 6.00 to 6.30

----------
Some molecules, each annotated with its measured IC50.
# test target: IDH1 R132H (Homo sapiens (Human), UniProt O75874, R132H)
# protocol summary: Assays for IDH1 R132H Inhibitors (NADPH/aKG, resazurin detection)
# Format: biochemical
# condition parameters: IDH1 R132H enzyme, Table 3; read-out: R132H IC50

>  <molecule>
[2H]C([2H])([2H])C([2H])(C([2H])([2H])[2H])[C@@]1([2H])N(C(=O)CC(F)(F)F)C([2H])([2H])C([2H])([2H])N(c2nc(C3CC3)c3c(c2C#N)CC(C)(C)OC3)C1([2H])[2H] [Compound 477]

>  <test target>
IDH1 R132H (Homo sapiens (Human), UniProt O75874, R132H)

>  <IC50>
< 500 nM

$$$$
>  <molecule>
COCCC(=O)N1CCN(c2nc(C3CC3)c3c(c2C#N)CC(C)(C)OC3)CC1C(F)F (stereo not shown)

>  <test target>
IDH1 R132H (Homo sapiens (Human), UniProt O75874, R132H)

>  <IC50>
500 to 1000 nM

$$$$
>  <molecule>
CC1(C)Cc2c(C#N)c(N3CCN(C(=O)c4ccoc4)C(C4CC4)C3)nc(C3CC3)c2CO1 (stereo not shown)

>  <test target>
IDH1 R132H (Homo sapiens (Human), UniProt O75874, R132H)

>  <IC50>
< 500 nM

$$$$
>  <molecule>
COCCC(=O)N1CCN(c2nc(C3CC3)c3c(c2C#N)CCN(C(C)=O)C3)C[C@H]1C1CC1

>  <test target>
IDH1 R132H (Homo sapiens (Human), UniProt O75874, R132H)

>  <IC50>
< 500 nM

$$$$
>  <molecule>
COCCC(=O)N1CCN(c2nc(C3CC3)c3c(c2C#N)CC(C)(C)OC3)CC1CC(F)(F)F (stereo not shown)

>  <test target>
IDH1 R132H (Homo sapiens (Human), UniProt O75874, R132H)

>  <IC50>
< 500 nM

$$$$

QUERY: If you can, please state the reported IC50 value of C=CS(=O)(=O)N1CCc2c(C#N)c(N3CCN(C(=O)C4CC4)[C@H](C4CC4)C3)nc(C3CC3)c2C1 .
RESULT: < 500 nM

QUERY: If you can, please state the reported IC50 value of [2H]C([2H])([2H])C([2H])(C([2H])([2H])[2H])[C@@]1([2H])N(C(=O)CCOC)C([2H])([2H])C([2H])([2H])N(c2nc(C3CC3)c3c(c2C#N)CC(C)(C)OC3)C1([2H])[2H] .
RESULT: < 500 nM

Hey, just so you know, these numbers are from patent US9662327B2.
